assayInfo: Stability in buffer at various pH values (HPLC detection)
Assay type: physicochemical
testContext: pH 7.4 buffer, 37° C., remaining prodrug
measuredAttribute: Stability pH 7.4: % Test Compound after 4 h [F(t = 4 h) × 100/F(t = 0 h)] (%)
Give just the number in %; leave the unit off.

Worked cases, Stability pH 7.4: % Test Compound after 4 h [F(t = 4 h) × 100/F(t = 0 h)] given:
molecule	resultUnits	assayValue
COc1cnc(-c2nn(Cc3c(F)cc(OCCOC(=O)[C@H](C)NC(=O)[C@@H](N)CCCCN)cc3F)c3ccccc23)nc1Nc1ccncc1 [Example 6-2-1, reference compound]	%	3
COc1cnc(-c2nn(Cc3c(F)cc(OCCOC(=O)[C@H](C)NC(=O)[C@H](N)CCCCN)cc3F)c3ccccc23)nc1Nc1ccnc(F)c1	%	0
COc1cnc(-c2nn(Cc3c(F)cc(OCCOC(=O)[C@H](C)NC(=O)[C@@H](N)CCCCN)cc3F)c3ccccc23)nc1Nc1ccnc(F)c1	%	9
COc1cnc(-c2nn(Cc3c(F)cc(OCCOC(=O)[C@H](C)NC(=O)[C@@H](N)CCCCN)cc3F)c3ccccc23)nc1Nc1ccnc(C)c1	%	4

Shifting focus to the molecule that follows.
Using the record for COc1cnccc1Nc1nc(-c2nn(Cc3c(F)cc(OCCOC(=O)[C@H](C)NC(=O)[C@@H](N)CCCCN)cc3F)c3ccccc23)ncc1OC , state its measured Stability pH 7.4: % Test Compound after 4 h [F(t = 4 h) × 100/F(t = 0 h)].
5

* * *

Quick reference: IC50 of the listed items.
studySystem: catalytic domain of human Bub1 (amino acids 704-1085) (Homo sapiens)
Construct: catalytic domain of human Bub1 (amino acids 704-1085); His6 (N); made in house; host or cells: Hi5 insect cells
assayInfo: Equilibrium probe competition assay (TR-FRET kinase binding assay)
testContext: Time 30 min; read-out: Assay 5 IC50
Give just the number in nM; leave the unit off.

compound	resultUnits	IC50
COc1cnc(-c2nn(Cc3c(F)cc(OCCO)cc3F)c3ccccc23)nc1Nc1ccnc(C)c1 [Example 2-1-2]	nM	3.5
COc1cnc(-c2nn(Cc3c(F)cc(OCCOC(=O)[C@H](C)NC(=O)[C@@H](N)CCCCN)cc3F)c3ccccc23)nc1Nc1ccnc(C)c1 [Example 4-1-1]	nM	10
COc1cnccc1Nc1nc(-c2nn(Cc3c(F)cc(OCCO)cc3F)c3ccccc23)ncc1OC [Example 2-1-3]	nM	1.3

Using the record for COc1cnccc1Nc1nc(-c2nn(Cc3c(F)cc(OCCOC(=O)[C@H](C)NC(=O)[C@@H](N)CCCCN)cc3F)c3ccccc23)ncc1OC [Example 4-1-2] , state its measured IC50.
2.3

* * *

studySystem: catalytic domain of human Bub1 (amino acids 704-1085) (Homo sapiens)
Construct: catalytic domain of human Bub1 (amino acids 704-1085); His6 (N); made in house; host or cells: Hi5 insect cells
assayInfo: Equilibrium probe competition assay (TR-FRET kinase binding assay)
testContext: Time 90 min; read-out: Assay 5 IC50
Quick reference: IC50 of the listed items.
Give just the number in nM; leave the unit off.

Worked cases, IC50 given:
testSmiles	IC50 [nM]
COc1cnc(-c2nn(Cc3c(F)cc(OCCOC(=O)[C@H](C)NC(=O)[C@@H](N)CCCCN)cc3F)c3ccccc23)nc1Nc1ccnc(C)c1	10
COc1cnccc1Nc1nc(-c2nn(Cc3c(F)cc(OCCO)cc3F)c3ccccc23)ncc1OC	0.54
COc1cnccc1Nc1nc(-c2nn(Cc3c(F)cc(OCCOC(=O)[C@H](C)NC(=O)[C@@H](N)CCCCN)cc3F)c3ccccc23)ncc1OC	1.3

Shifting focus to the compound that follows.
Using the record for COc1cnc(-c2nn(Cc3c(F)cc(OCCO)cc3F)c3ccccc23)nc1Nc1ccnc(C)c1 , state its measured IC50.
3.2

* * *

System: HeLa human cervical tumor cells
assayInfo: Proliferation assay (HeLa cell line)
Type: cell-based
testContext: 96 h, 4 days incubation, crystal violet, read-out: Biological Assay 2: Proliferation assay (HeLa cell line) median IC50
Quick reference: pIC50 of the listed items.
Note: pIC50 values are expressed as the negative base-10 logarithm of concentration in M.

Worked cases, pIC50 given:
compound	pIC50
COc1cnc(-c2nn(Cc3c(F)cc(OCCO)cc3F)c3ccccc23)nc1Nc1ccncc1Cl [Example 2-1-1]	5.39
COc1cnc(-c2nn(Cc3c(F)cc(OCCO)cc3F)c3ccccc23)nc1Nc1cc(NC(C)=O)ncc1C [Example 2-1-14]	5.82
COc1cnc(-c2nn(Cc3c(F)cc(OC[C@H](C)CO)cc3F)c3ccccc23)nc1Nc1cc(C)ncc1C [Example 2-3-5]	5.48
COc1cnc(-c2nn(Cc3c(F)cc(OCCO)cc3F)c3ccccc23)nc1Nc1ccnc(C)c1 [Example 2-1-2]	5.89
COc1cnc(-c2nn(Cc3c(F)cc(OCCO)cc3F)c3ccccc23)nc1Nc1ccnc(NC(=O)NC2CC2)c1 [Example 2-1-16]	5.51

Using the record for CCOc1cc(F)c(Cn2nc(-c3ncc(OC)c(Nc4ccncc4)n3)c3ccccc32)c(F)c1 [Example 6-4-1, reference compound] , state its measured pIC50.
5.62

Using the record for COc1cnc(-c2nn(Cc3c(F)cc(OCCO)cc3F)c3ccccc23)nc1Nc1ccncc1F [Example 2-1-6] , state its measured pIC50.
5.07

* * *

studySystem: catalytic domain of human Bub1 (amino acids 704-1085) (Homo sapiens, UniProt O43683)
Construct: catalytic domain of human Bub1 (amino acids 704-1085); His6 (N); made in house; host or cells: Hi5 insect cells
assayInfo: Equilibrium probe competition assay (TR-FRET kinase binding assay)
testContext: Time 15 min; read-out: Assay 5 IC50
Quick reference: IC50 of the listed items.
Give just the number in nM; leave the unit off.

Worked cases, IC50 given:
molecule	IC50 (nM)
COc1cnccc1Nc1nc(-c2nn(Cc3c(F)cc(OCCOC(=O)[C@H](C)NC(=O)[C@@H](N)CCCCN)cc3F)c3ccccc23)ncc1OC [Example 4-1-2]	2.7
COc1cnccc1Nc1nc(-c2nn(Cc3c(F)cc(OCCO)cc3F)c3ccccc23)ncc1OC [Example 2-1-3]	1.7
COc1cnc(-c2nn(Cc3c(F)cc(OCCOC(=O)[C@H](C)NC(=O)[C@@H](N)CCCCN)cc3F)c3ccccc23)nc1Nc1ccnc(C)c1 [Example 4-1-1]	17

Shifting focus to the molecule that follows.
Using the record for COc1cnc(-c2nn(Cc3c(F)cc(OCCO)cc3F)c3ccccc23)nc1Nc1ccnc(C)c1 [Example 2-1-2] , state its measured IC50.
1.6

* * *

Quick reference: IC50 of the listed items.
studySystem: catalytic domain of human Bub1 (amino acids 704-1085) (Homo sapiens, UniProt O43683)
Construct: catalytic domain of human Bub1 (amino acids 704-1085); His6 (N); made in house; host or cells: Hi5 insect cells
assayInfo: Equilibrium probe competition assay (TR-FRET kinase binding assay)
testContext: Time 240 min; read-out: Assay 5 IC50
Give just the number in nM; leave the unit off.

testSmiles	assayValue
COc1cnccc1Nc1nc(-c2nn(Cc3c(F)cc(OCCO)cc3F)c3ccccc23)ncc1OC	0.31
COc1cnc(-c2nn(Cc3c(F)cc(OCCOC(=O)[C@H](C)NC(=O)[C@@H](N)CCCCN)cc3F)c3ccccc23)nc1Nc1ccnc(C)c1	5.8
COc1cnc(-c2nn(Cc3c(F)cc(OCCO)cc3F)c3ccccc23)nc1Nc1ccnc(C)c1	4

Using the record for COc1cnccc1Nc1nc(-c2nn(Cc3c(F)cc(OCCOC(=O)[C@H](C)NC(=O)[C@@H](N)CCCCN)cc3F)c3ccccc23)ncc1OC , state its measured IC50.
0.69

* * *

studySystem: catalytic domain of human Bub1 (amino acids 704-1085) (Homo sapiens)
Construct: catalytic domain of human Bub1 (amino acids 704-1085); His6 (N); made in house; host or cells: Hi5 insect cells
assayInfo: Bub1 kinase assay (TR-FRET)
Format: biochemical
testContext: 10 μM ATP, 60 min reaction, pH 7.5; read-out: Biological Assay 1: Bub1 kinase assay median IC50
Strictly below 0.02 µM in IC50: yes. Otherwise: no.

Consider the following illustrative entries.
compound	studySystem	category
COc1cnc(-c2nn(Cc3c(F)cc(OCCO)cc3F)c3ccccc23)nc1Nc1ccnc(C)c1	catalytic domain of human Bub1 (amino acids 704-1085) (Homo sapiens)	no
COc1cnc(-c2nn(Cc3c(F)cc(OCCCO)cc3F)c3ccccc23)nc1Nc1ccnc(C)n1	catalytic domain of human Bub1 (amino acids 704-1085) (Homo sapiens)	no
COc1cnc(-c2nn(Cc3c(F)cc(OCCO)cc3F)c3ccccc23)nc1Nc1ccncc1Cl	catalytic domain of human Bub1 (amino acids 704-1085) (Homo sapiens)	yes
COc1cnc(-c2nn(Cc3c(F)cc(OCCO)cc3F)c3ccccc23)nc1Nc1ccncc1C1CC1	catalytic domain of human Bub1 (amino acids 704-1085) (Homo sapiens)	yes
COc1cnc(-c2nn(Cc3c(F)cc(OCCO)cc3F)c3ccccc23)nc1Nc1ccncc1F	catalytic domain of human Bub1 (amino acids 704-1085) (Homo sapiens)	yes

Quick check: does CCOc1cc(F)c(Cn2nc(-c3ncc(OCCOCCNC(=S)Nc4ccc(-c5c6ccc(=O)cc-6oc6cc(O)ccc56)c(C(=O)O)c4)c(Nc4ccncc4)n3)c3ccccc32)c(F)c1 [Example 6-5-1, reference compound] have IC50 under 0.02 µM?
no

Quick check: does COc1cnc(-c2nn(Cc3c(F)cc(OCCO)cc3F)c3ccccc23)nc1Nc1ccncc1 [Example 6-1-1, reference compound] have IC50 under 0.02 µM?
yes

Quick check: does COc1cnc(-c2nn(Cc3c(F)cc(OCCO)cc3F)c3ccccc23)nc1Nc1ccnc(NC(=O)C2CC2)c1 have IC50 under 0.02 µM?
yes

Quick check: does COc1cnc(-c2nn(Cc3c(F)cc(OC[C@H](C)CO)cc3F)c3ccccc23)nc1Nc1ccnc(C)n1 have IC50 under 0.02 µM?
no

Quick check: does COc1cnc(-c2nn(Cc3c(F)cc(OCCCO)cc3F)c3ccccc23)nc1Nc1ccnc(C)c1 have IC50 under 0.02 µM?
yes
